Recorded values, source paper PMC9028180.

- System: LPS-stimulated RAW 264.7 murine macrophage cells
- ASSAY_PROCEDURE: Tetrazolium-based (MTT) cell viability assay
- ASSAY_CONDITIONS: read-out: Cell Viability (IC50); Compound pre-treatment 1 h + LPS, 24 h; mean ± SD of two independent experiments
EXPERIMENTAL_READOUT: IC50

Entry CC(C)(C)c1cc(O)ccc1O [tBHQ, reference compound] : reported IC50 = ?
> 100 µM
